Entries annotated with measured viability
- System: Huh-7.5 Rluc-replicon viability, CellTiter-Glo ATP, 72 h
- run_description: Huh-7.5 replicon viability loss – cell-based, luminescence, cytotoxicity control for HCV NS3 helicase inhibitor project, late-stage follow-up (AID 623961)
- measurement_setup: at 10 µM; stronger effect = lower value

{"compound_smiles": "Cc1ccc2nc(-c3ccc4nc(-c5ccc(NC(=O)c6cc(C(F)(F)F)cc(C(F)(F)F)c6)cc5)sc4c3)sc2c1S(=O)(=O)O", "target_desc": "Huh-7.5 Rluc-replicon viability, CellTiter-Glo ATP, 72 h", "viability (%)": 122}
{"compound_smiles": "Cc1ccc2nc(-c3ccc4nc(NC(=O)c5ccc6ncoc6c5)sc4c3)sc2c1", "target_desc": "Huh-7.5 Rluc-replicon viability, CellTiter-Glo ATP, 72 h", "viability (%)": 28}
{"compound_smiles": "Cc1ccc2nc(-c3ccc4nc(-c5ccc(NC(=O)c6ccc(Cl)cc6)cc5)sc4c3)sc2c1S(=O)(=O)O", "target_desc": "Huh-7.5 Rluc-replicon viability, CellTiter-Glo ATP, 72 h", "viability (%)": 84}
{"compound_smiles": "Cc1ccc2nc(-c3ccc(NC(=O)c4ccc(NS(=O)(=O)c5ccccc5)cc4)cc3)sc2c1S(=O)(=O)O", "target_desc": "Huh-7.5 Rluc-replicon viability, CellTiter-Glo ATP, 72 h", "viability (%)": 119}
{"compound_smiles": "Cc1ccc2nc(-c3ccc4nc(-c5ccc(NC(=O)c6ccc(C(C)(C)C)cc6)cc5)sc4c3)sc2c1S(=O)(=O)O", "target_desc": "Huh-7.5 Rluc-replicon viability, CellTiter-Glo ATP, 72 h", "viability (%)": 87}
{"compound_smiles": "Cc1ccc2nc(-c3ccc(NC(=S)Nc4ccccc4Br)cc3)sc2c1", "target_desc": "Huh-7.5 Rluc-replicon viability, CellTiter-Glo ATP, 72 h", "viability (%)": 39}
{"compound_smiles": "Cc1ccc2nc(-c3ccc4nc(-c5ccc(NC(=O)c6cccc(Cl)c6)cc5)sc4c3)sc2c1S(=O)(=O)O", "target_desc": "Huh-7.5 Rluc-replicon viability, CellTiter-Glo ATP, 72 h", "viability (%)": 112}
{"compound_smiles": "CN1CCN(Cc2cc(CN3CCN(C)CC3)c(O)c(=O)c(CN3CCN(C)CC3)c2)CC1", "target_desc": "Huh-7.5 Rluc-replicon viability, CellTiter-Glo ATP, 72 h", "viability (%)": 69}
{"compound_smiles": "Cc1ccc2nc(-c3ccc4nc(-c5ccc(NC(=O)c6ccc(Cl)c(Cl)c6)cc5)sc4c3)sc2c1S(=O)(=O)O", "target_desc": "Huh-7.5 Rluc-replicon viability, CellTiter-Glo ATP, 72 h", "viability (%)": 114}
{"compound_smiles": "Cc1ccc2nc(-c3ccc4nc(-c5ccc(NCc6ccccc6)cc5)sc4c3)sc2c1S(=O)(=O)O", "target_desc": "Huh-7.5 Rluc-replicon viability, CellTiter-Glo ATP, 72 h", "viability (%)": 109}
{"compound_smiles": "CCOc1ccc2nc(NC(=O)c3ccc4ncsc4c3)sc2c1", "target_desc": "Huh-7.5 Rluc-replicon viability, CellTiter-Glo ATP, 72 h", "viability (%)": 3}
{"compound_smiles": "COc1ccc(C(=O)Nc2ccc(-c3nc4ccc(-c5nc6ccc(C)c(S(=O)(=O)O)c6s5)cc4s3)cc2)cc1", "target_desc": "Huh-7.5 Rluc-replicon viability, CellTiter-Glo ATP, 72 h", "viability (%)": 85}
{"compound_smiles": "Cc1ccc2nc(-c3ccc4nc(-c5ccc(NC(=O)Nc6ccc(C(F)(F)F)cc6)cc5)sc4c3)sc2c1S(=O)(=O)O", "target_desc": "Huh-7.5 Rluc-replicon viability, CellTiter-Glo ATP, 72 h", "viability (%)": 99}
{"compound_smiles": "CC(=O)Nc1ccc(-c2nc3ccc(-c4nc5ccc(C)c(S(=O)(=O)O)c5s4)cc3s2)cc1", "target_desc": "Huh-7.5 Rluc-replicon viability, CellTiter-Glo ATP, 72 h", "viability (%)": 102}
{"compound_smiles": "Cc1ccc2nc(-c3ccc(NC(=O)c4ccc(NC(=O)c5ccc(N)cc5)cc4)cc3)sc2c1S(=O)(=O)O", "target_desc": "Huh-7.5 Rluc-replicon viability, CellTiter-Glo ATP, 72 h", "viability (%)": 112}
{"compound_smiles": "CCN(CC)c1ccc(-c2nc3ccc(C)c(S(=O)(=O)O)c3s2)cc1", "target_desc": "Huh-7.5 Rluc-replicon viability, CellTiter-Glo ATP, 72 h", "viability (%)": 99}
{"compound_smiles": "COC(=O)c1ccc(C(=O)Nc2ccc(-c3nc4ccc(-c5nc6ccc(C)c(S(=O)(=O)O)c6s5)cc4s3)cc2)cc1", "target_desc": "Huh-7.5 Rluc-replicon viability, CellTiter-Glo ATP, 72 h", "viability (%)": 101}
{"compound_smiles": "Cc1ccc(NC(=O)Nc2ccc(-c3nc4ccc(-c5nc6ccc(C)c(S(=O)(=O)O)c6s5)cc4s3)cc2)cc1", "target_desc": "Huh-7.5 Rluc-replicon viability, CellTiter-Glo ATP, 72 h", "viability (%)": 93}
{"compound_smiles": "Cc1ccc2nc(-c3ccc4nc(-c5ccc(NC(=O)c6cccc(C(F)(F)F)c6F)cc5)sc4c3)sc2c1S(=O)(=O)O", "target_desc": "Huh-7.5 Rluc-replicon viability, CellTiter-Glo ATP, 72 h", "viability (%)": 122}
{"compound_smiles": "Cc1ccc2nc(-c3ccc4nc(-c5ccc(NC(=S)Nc6ccccc6)cc5)sc4c3)sc2c1S(=O)(=O)O", "target_desc": "Huh-7.5 Rluc-replicon viability, CellTiter-Glo ATP, 72 h", "viability (%)": 98}
{"compound_smiles": "CS(=O)(=O)c1ccc2nc(NC(=O)c3ccc4ncsc4c3)sc2c1", "target_desc": "Huh-7.5 Rluc-replicon viability, CellTiter-Glo ATP, 72 h", "viability (%)": 41}
{"compound_smiles": "Cc1ccc2nc(-c3ccc4nc(-c5ccc(NC(=O)c6cc(F)cc(C(F)(F)F)c6)cc5)sc4c3)sc2c1S(=O)(=O)O", "target_desc": "Huh-7.5 Rluc-replicon viability, CellTiter-Glo ATP, 72 h", "viability (%)": 113}
{"compound_smiles": "Cc1ccc2nc(-c3ccc4nc(-c5ccc(NC(=O)c6ccc(N(C)C)cc6)cc5)sc4c3)sc2c1S(=O)(=O)O", "target_desc": "Huh-7.5 Rluc-replicon viability, CellTiter-Glo ATP, 72 h", "viability (%)": 94}
{"compound_smiles": "Cc1ccc2nc(-c3ccc(NC(=O)c4ccc(NC(=O)Nc5ccccc5)cc4)cc3)sc2c1S(=O)(=O)O", "target_desc": "Huh-7.5 Rluc-replicon viability, CellTiter-Glo ATP, 72 h", "viability (%)": 113}
{"compound_smiles": "Cc1ccc2nc(-c3ccc4nc(-c5ccc(NC(=O)c6cccc(C(F)(F)F)c6)cc5)sc4c3)sc2c1S(=O)(=O)O", "target_desc": "Huh-7.5 Rluc-replicon viability, CellTiter-Glo ATP, 72 h", "viability (%)": 121}
{"compound_smiles": "Cc1ccc2nc(-c3ccc(NC(=O)c4ccc(NC(=O)c5ccc(NC(=O)OCC6c7ccccc7-c7ccccc76)cc5)cc4)cc3)sc2c1S(=O)(=O)O", "target_desc": "Huh-7.5 Rluc-replicon viability, CellTiter-Glo ATP, 72 h", "viability (%)": 113}
{"compound_smiles": "Cc1ccc2nc(-c3ccc(N)cc3)sc2c1S(=O)(=O)O", "target_desc": "Huh-7.5 Rluc-replicon viability, CellTiter-Glo ATP, 72 h", "viability (%)": 104}
{"compound_smiles": "Cc1ccc2nc(-c3ccc4nc(-c5ccc(NC(=O)c6ccncc6)cc5)sc4c3)sc2c1S(=O)(=O)O", "target_desc": "Huh-7.5 Rluc-replicon viability, CellTiter-Glo ATP, 72 h", "viability (%)": 117}
{"compound_smiles": "Cc1ccc2nc(-c3ccc4nc(-c5ccc(NC(=O)c6ccc(F)cc6)cc5)sc4c3)sc2c1S(=O)(=O)O", "target_desc": "Huh-7.5 Rluc-replicon viability, CellTiter-Glo ATP, 72 h", "viability (%)": 94}
{"compound_smiles": "Cc1cc2sc(-c3ccc4nc(-c5ccc(N)cc5)sc4c3)nc2cc1S(=O)(=O)O", "target_desc": "Huh-7.5 Rluc-replicon viability, CellTiter-Glo ATP, 72 h", "viability (%)": 87}
{"compound_smiles": "Cc1ccc2nc(-c3ccc4nc(-c5ccc(NC(=O)Nc6ccccc6)cc5)sc4c3)sc2c1S(=O)(=O)O", "target_desc": "Huh-7.5 Rluc-replicon viability, CellTiter-Glo ATP, 72 h", "viability (%)": 108}
{"compound_smiles": "Cc1ccc2nc(-c3ccc4nc(-c5ccc(NC(=O)c6ccc(Br)cc6)cc5)sc4c3)sc2c1S(=O)(=O)O", "target_desc": "Huh-7.5 Rluc-replicon viability, CellTiter-Glo ATP, 72 h", "viability (%)": 113}
{"compound_smiles": "Cc1ccc2nc(-c3ccc4nc(-c5ccc(NC(=O)Nc6ccc(Cl)cc6)cc5)sc4c3)sc2c1S(=O)(=O)O", "target_desc": "Huh-7.5 Rluc-replicon viability, CellTiter-Glo ATP, 72 h", "viability (%)": 98}
